Give measured protein stability index for each item. Keep answers brief.
# System: Saccharomyces cerevisiae;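 note: PSI is a weighted mean of sequencing reads over stability bins, variants kept only with over 10 reads, mCherry proximal and sfGFP distal, peptide attached via GGGS linker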
# ASSAY REMARKS: protein stability index of tFT-peptide fusion (C-terminal peptide) (PSI (0-1 scale)); higher = more stable (slower turnover)
# EXPERIMENTAL CONTEXT: genetic background: wild type; temperature: 30 C
Please give only the number in your answer, with no unit.

Prompt line: Saccharomyces cerevisiae / protein stability index / VRLLGVGGGFTC : value?
Response line: 0.701

Prompt line: Saccharomyces cerevisiae / protein stability index / YACADVSDPLSV : value?
Response line: 0.721

Prompt line: Saccharomyces cerevisiae / protein stability index / GGGGGGGGGGVG : value?
Response line: 0.514

Prompt line: Saccharomyces cerevisiae / protein stability index / TLSPPLPPPSPS : value?
Response line: 0.661

Prompt line: Saccharomyces cerevisiae / protein stability index / PNPIHHPTSTTA : value?
Response line: 0.672

Prompt line: Saccharomyces cerevisiae / protein stability index / YMTWRGCGWSGG : value?
Response line: 0.697

Prompt line: Saccharomyces cerevisiae / protein stability index / SVLRPPAAPPFL : value?
Response line: 0.674

Prompt line: Saccharomyces cerevisiae / protein stability index / GAEAFWAVRGGG : value?
Response line: 0.721

Prompt line: Saccharomyces cerevisiae / protein stability index / PAYTRDIRKPRH : value?
Response line: 0.654

Prompt line: Saccharomyces cerevisiae / protein stability index / SPFEASSPQVLT : value?
Response line: 0.644

Prompt line: Saccharomyces cerevisiae / protein stability index / ISVSFSVIFFLL : value?
Response line: 0.154

Prompt line: Saccharomyces cerevisiae / protein stability index / GLLVFRCINLRC : value?
Response line: 0.357

Prompt line: Saccharomyces cerevisiae / protein stability index / GGGAGGGGVVVR : value?
Response line: 0.643

Prompt line: Saccharomyces cerevisiae / protein stability index / LGLCFFFYSLHS : value?
Response line: 0.462

Prompt line: Saccharomyces cerevisiae / protein stability index / GGSRPPPFRPPA : value?
Response line: 0.724

Prompt line: Saccharomyces cerevisiae / protein stability index / TSLAPLPAPLRR : value?
Response line: 0.725

Prompt line: Saccharomyces cerevisiae / protein stability index / FTWRTIRPRCQW : value?
Response line: 0.718

Prompt line: Saccharomyces cerevisiae / protein stability index / LALPSWVRYASR : value?
Response line: 0.694

Prompt line: Saccharomyces cerevisiae / protein stability index / TSTTRRGPRSRF : value?
Response line: 0.817

Prompt line: Saccharomyces cerevisiae / protein stability index / IWWFKELRVCRV : value?
Response line: 0.49

Prompt line: Saccharomyces cerevisiae / protein stability index / LAPPPAAPLSHS : value?
Response line: 0.697

Prompt line: Saccharomyces cerevisiae / protein stability index / LEVAGVLCSRVC : value?
Response line: 0.56

Prompt line: Saccharomyces cerevisiae / protein stability index / NKKEYHDRKKKS : value?
Response line: 0.619

Prompt line: Saccharomyces cerevisiae / protein stability index / TIPSSSQVPIGG : value?
Response line: 0.641

Prompt line: Saccharomyces cerevisiae / protein stability index / WLALSFFSFFFC : value?
Response line: 0.588

Prompt line: Saccharomyces cerevisiae / protein stability index / QCKHIVRKIKLH : value?
Response line: 0.186

Prompt line: Saccharomyces cerevisiae / protein stability index / SPQFLLPRALSP : value?
Response line: 0.695

Prompt line: Saccharomyces cerevisiae / protein stability index / SSFGPSFLTLFF : value?
Response line: 0.704

Prompt line: Saccharomyces cerevisiae / protein stability index / MSHVCICRRLML : value?
Response line: 0.498

Prompt line: Saccharomyces cerevisiae / protein stability index / LGGGGGGGVAGD : value?
Response line: 0.723

Prompt line: Saccharomyces cerevisiae / protein stability index / LAFFPRGTPPHS : value?
Response line: 0.67

Prompt line: Saccharomyces cerevisiae / protein stability index / KKGVSNKVSGFT : value?
Response line: 0.719

Prompt line: Saccharomyces cerevisiae / protein stability index / PPPLPPPLPPPL : value?
Response line: 0.705

Prompt line: Saccharomyces cerevisiae / protein stability index / PPRPPRPPPRTP : value?
Response line: 0.694

Prompt line: Saccharomyces cerevisiae / protein stability index / RCGGEWTGGVWR : value?
Response line: 0.845

Prompt line: Saccharomyces cerevisiae / protein stability index / KQKQRKERIKRK : value?
Response line: 0.688

Prompt line: Saccharomyces cerevisiae / protein stability index / LLQFYWRPCRGY : value?
Response line: 0.699

Prompt line: Saccharomyces cerevisiae / protein stability index / VYLVVSSSMDYR : value?
Response line: 0.633

Prompt line: Saccharomyces cerevisiae / protein stability index / EWGAGGVVVGGW : value?
Response line: 0.718

Prompt line: Saccharomyces cerevisiae / protein stability index / AMPLPPPTPPRS : value?
Response line: 0.627

Prompt line: Saccharomyces cerevisiae / protein stability index / PEAEPPPPPPPP : value?
Response line: 0.552

Prompt line: Saccharomyces cerevisiae / protein stability index / VYNLHRGLFLSL : value?
Response line: 0.512

Prompt line: Saccharomyces cerevisiae / protein stability index / WVWCVCVVVWCG : value?
Response line: 0.254

Prompt line: Saccharomyces cerevisiae / protein stability index / RPIPMEGAYYLV : value?
Response line: 0.693

Prompt line: Saccharomyces cerevisiae / protein stability index / LYFLLGSLVFVF : value?
Response line: 0.392

Prompt line: Saccharomyces cerevisiae / protein stability index / CFSCLWVPLLPS : value?
Response line: 0.649

Prompt line: Saccharomyces cerevisiae / protein stability index / GPGVFGGFRTEK : value?
Response line: 0.648

Prompt line: Saccharomyces cerevisiae / protein stability index / SAQHPSTRHRPP : value?
Response line: 0.6

Prompt line: Saccharomyces cerevisiae / protein stability index / AAWLSQLNKVNV : value?
Response line: 0.668

Prompt line: Saccharomyces cerevisiae / protein stability index / HGLPPPLPPLRS : value?
Response line: 0.689

Prompt line: Saccharomyces cerevisiae / protein stability index / GLSPPLCSTPSR : value?
Response line: 0.736

Prompt line: Saccharomyces cerevisiae / protein stability index / SPPPPYPSLFPL : value?
Response line: 0.677

Prompt line: Saccharomyces cerevisiae / protein stability index / PPPPASSFSPPR : value?
Response line: 0.737

Prompt line: Saccharomyces cerevisiae / protein stability index / FDGRVTALRVRL : value?
Response line: 0.724

Prompt line: Saccharomyces cerevisiae / protein stability index / PFSGPVYSHNDV : value?
Response line: 0.738

Prompt line: Saccharomyces cerevisiae / protein stability index / VSGAAFMSSAFW : value?
Response line: 0.753

Prompt line: Saccharomyces cerevisiae / protein stability index / FAKRVARVAREH : value?
Response line: 0.33

Prompt line: Saccharomyces cerevisiae / protein stability index / CVARWPRPAGSS : value?
Response line: 0.723

Prompt line: Saccharomyces cerevisiae / protein stability index / LSPPLAPPPALP : value?
Response line: 0.701

Prompt line: Saccharomyces cerevisiae / protein stability index / STGSAISSLSDR : value?
Response line: 0.68

Prompt line: Saccharomyces cerevisiae / protein stability index / GRGGYGKESLYC : value?
Response line: 0.627

Prompt line: Saccharomyces cerevisiae / protein stability index / VKWAIWGGMEWR : value?
Response line: 0.667

Prompt line: Saccharomyces cerevisiae / protein stability index / GWGGCGGWGFVG : value?
Response line: 0.605

Prompt line: Saccharomyces cerevisiae / protein stability index / PTAPVLRPPASP : value?
Response line: 0.7

Prompt line: Saccharomyces cerevisiae / protein stability index / PLVVPPSPRPPP : value?
Response line: 0.735

Prompt line: Saccharomyces cerevisiae / protein stability index / LGILSERIGRAL : value?
Response line: 0.771

Prompt line: Saccharomyces cerevisiae / protein stability index / SVVSLLCQFLLG : value?
Response line: 0.673

Prompt line: Saccharomyces cerevisiae / protein stability index / RSGGVRCNDVRR : value?
Response line: 0.675

Prompt line: Saccharomyces cerevisiae / protein stability index / HSPRVLLPLYFR : value?
Response line: 0.378

Prompt line: Saccharomyces cerevisiae / protein stability index / SVTDCTADHASV : value?
Response line: 0.653

Prompt line: Saccharomyces cerevisiae / protein stability index / SPVRSQPALLVV : value?
Response line: 0.565

Prompt line: Saccharomyces cerevisiae / protein stability index / LDVSGEVRVGRG : value?
Response line: 0.629

Prompt line: Saccharomyces cerevisiae / protein stability index / LDLLIVNFFNLV : value?
Response line: 0.69

Prompt line: Saccharomyces cerevisiae / protein stability index / LCVFRFFLFFFL : value?
Response line: 0.402

Prompt line: Saccharomyces cerevisiae / protein stability index / NRAIVAYFPGMF : value?
Response line: 0.666

Prompt line: Saccharomyces cerevisiae / protein stability index / ELGNREGVGYEV : value?
Response line: 0.781

Prompt line: Saccharomyces cerevisiae / protein stability index / RFYFSLSWSGFC : value?
Response line: 0.66

Hey, just so you know, these numbers are from the supplement of paper PMC10724198.
